Readings of IC50 for the listed compounds
biological target: factor Xa (Homo sapiens, UniProt P00742); assay: Inhibition of factor Xa, hydrolysis kinetics of chromogenic substrate S2765; assay type: biochemical; conditions: substrate S2765, buffer solution; read-out: IC50, μM ± SEM (n = 3), Xa
Sequence (P00742 235-488 limits assumed): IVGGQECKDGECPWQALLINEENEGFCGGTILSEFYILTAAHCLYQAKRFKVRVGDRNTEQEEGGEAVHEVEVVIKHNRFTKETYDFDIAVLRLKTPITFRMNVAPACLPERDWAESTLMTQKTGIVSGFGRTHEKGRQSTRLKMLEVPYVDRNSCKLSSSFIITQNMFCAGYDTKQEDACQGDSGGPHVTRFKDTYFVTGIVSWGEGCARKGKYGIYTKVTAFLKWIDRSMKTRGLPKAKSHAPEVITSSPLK
Sequence (P00742 41-179 partner limits assumed): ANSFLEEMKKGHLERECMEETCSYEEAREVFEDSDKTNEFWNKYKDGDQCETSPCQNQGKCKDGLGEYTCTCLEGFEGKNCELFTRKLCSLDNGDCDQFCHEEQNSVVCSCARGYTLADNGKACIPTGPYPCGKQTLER
The answer is to be given in µM; state only the numeric part.

> print(dat)
                                   compound  scale.unit  endpoint.value
1  CC1(c2ccccc2)CC(C)(C)N2C(=O)/C(=N\Nc3nc(-c4ccc(Cl)cc4)cs3)c3cc(Br)cc1c32 (centres unmarked)          µM            5.75

Alright, here's another compound for you.
// query Answer with the recorded IC50 for the compound listed here: CC1CC(C)(C)N2C(=O)/C(=N\Nc3nc(-c4ccc(F)cc4)cs3)c3cc(Cl)cc1c32 (centres unmarked)
// result 5.43

----------
target: factor XIa (Homo sapiens, UniProt P03951); assay: Inhibition of factor XIa, hydrolysis kinetics of chromogenic substrate S2366; type: biochemical; conditions: 30 μM compound; factor XIa 5 nmol/L; S2366 200 µmol/L; negative values denote percent activation; read-out: Percent Inhibition at 30 μM ± SEM (n = 3), XIa
Sequence (P03951 388-625 limits assumed): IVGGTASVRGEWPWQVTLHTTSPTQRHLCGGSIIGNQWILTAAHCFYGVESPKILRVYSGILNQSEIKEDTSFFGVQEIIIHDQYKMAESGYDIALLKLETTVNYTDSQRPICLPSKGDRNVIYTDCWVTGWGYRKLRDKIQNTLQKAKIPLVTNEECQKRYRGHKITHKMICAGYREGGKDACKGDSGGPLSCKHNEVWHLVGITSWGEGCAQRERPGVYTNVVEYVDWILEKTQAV
Sequence (P03951 19-387 partner limits assumed): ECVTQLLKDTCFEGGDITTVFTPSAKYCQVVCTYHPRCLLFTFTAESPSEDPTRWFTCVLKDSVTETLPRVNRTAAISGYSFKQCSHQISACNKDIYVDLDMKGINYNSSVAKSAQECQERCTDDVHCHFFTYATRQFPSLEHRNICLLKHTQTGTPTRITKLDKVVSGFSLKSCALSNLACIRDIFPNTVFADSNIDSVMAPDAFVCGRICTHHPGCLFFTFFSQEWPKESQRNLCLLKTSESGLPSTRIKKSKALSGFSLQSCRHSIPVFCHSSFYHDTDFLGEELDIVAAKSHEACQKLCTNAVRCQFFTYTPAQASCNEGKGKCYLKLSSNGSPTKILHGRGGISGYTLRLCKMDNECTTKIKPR
Readings of inhibition at 30 µM for the listed molecules
The answer is to be given in %; state only the numeric part.

> print(dat)
                                   molecule                              study.system  endpoint.value
1  CC1(c2ccc(Cl)cc2)CC(C)(C)N2C(=O)/C(=N\Nc3nc(-c4ccc(F)cc4)cs3)c3cc(F)cc1c32 (centres unmarked) [5l]  factor XIa (Homo sapiens, UniProt P03951)             -11
2  COc1cc2c3c(c1)C(C)CC(C)(C)N3C(=O)/C2=N\Nc1nc(-c2ccc(F)cc2)cs1 (centres unmarked) [5b]  factor XIa (Homo sapiens, UniProt P03951)              -6
3  CC1(c2ccc(Cl)cc2)CC(C)(C)N2C(=O)/C(=N\Nc3nc(-c4ccc(Cl)cc4)cs3)c3cc(F)cc1c32 (centres unmarked) [5k]  factor XIa (Homo sapiens, UniProt P03951)              37
4  COc1ccc(-c2csc(N/N=C3\C(=O)N4c5c3cc(Cl)cc5C(C)CC4(C)C)n2)cc1 (centres unmarked) [5e]  factor XIa (Homo sapiens, UniProt P03951)              -2
5  COc1ccc(-c2csc(N/N=C3\C(=O)N4c5c3cc(Cl)cc5C(C)(c3ccc(Cl)cc3)CC4(C)C)n2)cc1 (centres unmarked) [5j]  factor XIa (Homo sapiens, UniProt P03951)              -3

// query Provide measured inhibition at 30 µM on factor XIa (Homo sapiens, UniProt P03951) for COc1cc2c3c(c1)C(C)CC(C)(C)N3C(=O)/C2=N\Nc1nc(-c2ccc(Cl)cc2)cs1 (centres unmarked) [5a] please.
// result -13

// query Provide measured inhibition at 30 µM on factor XIa (Homo sapiens, UniProt P03951) for COc1ccc(-c2csc(N/N=C3\C(=O)N4c5c3cccc5C(C)(c3ccc(Cl)cc3)CC4(C)C)n2)cc1 (centres unmarked) [5i] please.
// result -14

// query Provide measured inhibition at 30 µM on factor XIa (Homo sapiens, UniProt P03951) for COc1cc2c3c(c1)C(C)CC(C)(C)N3C(=O)/C2=N\Nc1nc(-c2ccc(Br)cc2)cs1 (centres unmarked) [5c] please.
// result -7

// query Provide measured inhibition at 30 µM on factor XIa (Homo sapiens, UniProt P03951) for CC1(c2ccc(Cl)cc2)CC(C)(C)N2C(=O)/C(=N\Nc3nc(-c4ccccc4)cs3)c3cc(Br)cc1c32 (centres unmarked) [5o] please.
// result -11

// query Provide measured inhibition at 30 µM on factor XIa (Homo sapiens, UniProt P03951) for COc1cccc(-c2csc(N/N=C3\C(=O)N4c5c3cc(F)cc5C(C)CC4(C)C)n2)c1 (centres unmarked) [5f] please.
// result -11

// query Provide measured inhibition at 30 µM on factor XIa (Homo sapiens, UniProt P03951) for COc1cccc(-c2csc(N/N=C3\C(=O)N4c5c3cc(F)cc5C(C)(c3ccc(Cl)cc3)CC4(C)C)n2)c1 (centres unmarked) [5n] please.
// result -19

----------
Readings of inhibition at 30 µM for the listed compounds
target: factor Xa (Homo sapiens, UniProt P00742); test: Inhibition of factor Xa, hydrolysis kinetics of chromogenic substrate S2765; assay type: biochemical; conditions: 30 μM compound; factor Xa 5 nmol/L; S2765 200 µmol/L; negative values denote percent activation; read-out: Percent Inhibition at 30 μM ± SEM (n = 3), Xa
The answer is to be given in %; state only the numeric part.

> print(dat)
                                   compound  endpoint.value
1  COc1cccc(-c2csc(N/N=C3\C(=O)N4c5c3cc(F)cc5C(C)CC4(C)C)n2)c1 (stereo not drawn)             -25
2  CC1(c2ccc(Cl)cc2)CC(C)(C)N2C(=O)/C(=N\Nc3nc(-c4cccc(Cl)c4)cs3)c3cc(F)cc1c32 (stereo not drawn)             -17
3  CC1(c2ccc(Cl)cc2)CC(C)(C)N2C(=O)/C(=N\Nc3nc(-c4ccccc4)cs3)c3cc(Br)cc1c32 (stereo not drawn)              -4
4  CC1(c2ccc(Cl)cc2)CC(C)(C)N2C(=O)/C(=N\Nc3nc(-c4ccc(Cl)cc4)cs3)c3cc(F)cc1c32 (stereo not drawn)             -12
5  COc1cc2c3c(c1)C(C)CC(C)(C)N3C(=O)/C2=N\Nc1nc(-c2ccc(Br)cc2)cs1 (stereo not drawn)             -40
6  COc1cc2c3c(c1)C(C)CC(C)(C)N3C(=O)/C2=N\Nc1nc(-c2ccc(F)cc2)cs1 (stereo not drawn)             -30

// query Answer with the recorded inhibition at 30 µM for the compound listed here: CC1(c2ccc(Cl)cc2)CC(C)(C)N2C(=O)/C(=N\Nc3nc(-c4ccc(F)cc4)cs3)c3cc(F)cc1c32 (stereo not drawn)
// result -4

// query Answer with the recorded inhibition at 30 µM for the compound listed here: COc1cc2c3c(c1)C(C)CC(C)(C)N3C(=O)/C2=N\Nc1nc(-c2ccc(Cl)cc2)cs1 (stereo not drawn)
// result -30

// query Answer with the recorded inhibition at 30 µM for the compound listed here: CC1(c2ccccc2)CC(C)(C)N2C(=O)/C(=N\Nc3nc(-c4ccc(Cl)cc4)cs3)c3cc(F)cc1c32 (stereo not drawn)
// result 51

// query Answer with the recorded inhibition at 30 µM for the compound listed here: COc1cccc(-c2csc(N/N=C3\C(=O)N4c5c3cc(F)cc5C(C)(c3ccc(Cl)cc3)CC4(C)C)n2)c1 (stereo not drawn)
// result -2

// query Answer with the recorded inhibition at 30 µM for the compound listed here: COc1ccc(-c2csc(N/N=C3\C(=O)N4c5c3cc(Cl)cc5C(C)CC4(C)C)n2)cc1 (stereo not drawn)
// result -8

// query Answer with the recorded inhibition at 30 µM for the compound listed here: COc1ccc(-c2csc(N/N=C3\C(=O)N4c5c3cc(Cl)cc5C(C)(c3ccc(Cl)cc3)CC4(C)C)n2)cc1 (stereo not drawn)
// result -3

// query Answer with the recorded inhibition at 30 µM for the compound listed here: COc1ccc(-c2csc(N/N=C3\C(=O)N4c5c3cccc5C(C)(c3ccc(Cl)cc3)CC4(C)C)n2)cc1 (stereo not drawn)
// result -21

----------
target: factor XIa (Homo sapiens, UniProt P03951); assay: Inhibition of factor XIa, hydrolysis kinetics of chromogenic substrate S2366; format: biochemical; conditions: 30 μM compound; factor XIa 5 nmol/L; S2366 200 µmol/L; negative values denote percent activation; read-out: Percent Inhibition at 30 μM ± SEM (n = 3), XIa
Parameter: inhibition at 30 µM

Worked examples follow.
> print(dat)
                                   compound  endpoint.value
1  CC1CC(C)(C)N2C(=O)/C(=N\Nc3nc(-c4ccc(F)cc4)cs3)c3cc(Cl)cc1c32 (stereo not shown)      98 to 100%
2  CC1(c2ccccc2)CC(C)(C)N2C(=O)/C(=N\Nc3nc(-c4ccc(Cl)cc4)cs3)c3cc(F)cc1c32 (stereo not shown)             76%
3  CC1(c2ccc(Cl)cc2)CC(C)(C)N2C(=O)/C(=N\Nc3nc(-c4cccc(Cl)c4)cs3)c3cc(F)cc1c32 (stereo not shown)            -14%

// query Provide measured inhibition at 30 µM on factor XIa (Homo sapiens, UniProt P03951) for CC1(c2ccccc2)CC(C)(C)N2C(=O)/C(=N\Nc3nc(-c4ccc(Cl)cc4)cs3)c3cc(Br)cc1c32 (stereo not shown) please.
// result 98 to 100%
